Recorded values, source ChEMBL document CHEMBL4368926.

Provide the reported selectivity ratio of each item.
- assay name: Selectivity index, ratio of IC50 for HEK293 cells to IC50 for human HT-29 cells
- Assay type: toxicity
- condition summary: HEK293 cells versus HT-29 cells, read-out: Ratio IC50
Could you keep your reply to the number by itself?

Query block: Looking for the measured selectivity ratio of COc1cccc(N2CCCC2)c1 , can you help?
Result block: 3

Query block: What would you report for COc1ccc(-c2cccnc2)c(OC)c1 ?
Result block: 2

Query block: What would you report for COc1ccc(N2CCOCC2)cc1 ?
Result block: 3
